Cited source: patent US6265603A

System: H-ras
Assay: Inhibition of H-ras prenylation/processing in whole cells (H-ras (61 L) transformed NIH3T3 fibroblasts, Western blot)
Assay type: cell-based
Details: Mus musculus; H-ras (61 L) transformed NIH3T3 fibroblasts, 24 h; 50 μM lovastatin as 100% reference
I'd appreciate it if you could supply IC50 values for the items below.
Give bare numbers, in µM.

Worked examples follow.
> print(dat)
                                   compound  experimental.value
1  COC(=O)[C@H](CCSC)NC(=O)c1cc(OC[C@@H](N)CS)ccc1-c1ccccc1                 3.2
2  COC(=O)[C@H](CCSC)NC(=O)c1cccc(OC[C@@H](/C=C/[C@@H](N)CS)C(C)C)c1                 3.3
3  COC(=O)[C@H](CCSC)NC(=O)c1cc(OCC[C@@H](N)CS)ccc1C(C)C               0.039
4  COC(=O)C(CCSC)NC(=O)c1ccccc1OC[C@@H](/C=C/[C@@H](N)CS)C(C)C (stereo partly drawn)                 4.1
5  COC(=O)[C@H](CCSC)NC(=O)c1cc(OC[C@@H](N)CS)ccc1C(C)C                 3.1
6  COC(=O)[C@H](CCSC)NC(=O)c1cc(OC[C@@H](/C=C/[C@@H](N)CS)C(C)C)ccc1-c1ccccc1                  31
7  COC(=O)[C@H](CCSC)NC(=O)c1cc(OC[C@@H](/C=C/[C@@H](N)CS)C(C)C)ccc1C(C)C               0.122
8  COC(=O)[C@H](CCSC)NC(=O)c1cc(OCC[C@@H](N)CS)ccc1-c1ccccc1               0.298

Turning to the following compound.
Looking up COC(=O)[C@H](CCSC)NC(=O)c1cc(COC[C@@H](N)CS)ccc1C(C)C , I found its IC50 recorded as 0.049

----------
Biological target: FTase (Homo sapiens, UniProt P49354+P49356)
Experiment: In vitro inhibition of FTase-mediated prenylation (recombinant FTase, recombinant H-ras, [3H] farnesylpyrophosphate)
Settings: 15 min, 37° C.; 3 μM recombinant H-ras, 440 nM [3H] farnesylpyrophosphate
PROPERTY: pIC50
Numbers only, as −log10 of the molar value.

Worked examples follow.
> print(dat)
                                   molecule  experimental.value
1  CSCC[C@H](NC(=O)c1cc(OCC[C@@H](N)CS)ccc1C(C)C)C(=O)O                7.68
2  CSCC[C@H](NC(=O)c1ccccc1OC[C@@H](/C=C/[C@@H](N)CS)C(C)C)C(=O)O                7.35
3  CSCCC(NC(=O)c1ccc(OC[C@@H](/C=C/[C@@H](N)CS)C(C)C)cc1)C(=O)O (stereo partly drawn)                5.20
4  CSCC[C@H](NC(=O)c1cc(COC[C@@H](N)CS)ccc1C(C)C)C(=O)O                7.82
5  CSCC[C@@H](C(=O)O)N(C)Cc1cc(OCC[C@@H](N)CS)ccc1C(C)C                6.46

Looking up CSCC[C@H](NC(=O)c1ccc(OC/C=C/[C@@H](N)CS)cc1)C(=O)O , I found its pIC50 recorded as 6.05
